Test: Mouse hepatocyte metabolic stability
Assay type: in vitro ADME
Conditions: mouse hepatocytes; limits of quantitation 0.5 and 50

{"compound": "O=C(c1sccc1Cl)N1CCCC1c1ccccc1-c1cccc(O)c1 (centres unmarked) [ESC1002755]", "Cl (clearance)": ">50 mL/min/g liver"}
{"compound": "O=C(c1sccc1Cl)N1CCC[C@H]1c1ccccc1-c1cc(O)ccc1F [ESC1002842]", "Cl (clearance)": ">50 mL/min/g liver"}
{"compound": "Cc1nc[nH]c1CN(C)c1cccc(N(CC(C)C)C(=O)c2ccccc2F)c1 [ESC1002204]", "Cl (clearance)": ">50 mL/min/g liver"}
{"compound": "COc1cccc(-c2ccccc2C2CCCN2C(=O)c2[nH]ncc2Cl)c1 (centres unmarked) [ESC1002757]", "Cl (clearance)": ">50 mL/min/g liver"}
{"compound": "CC(C)CN(C(=O)c1ccccc1F)c1cccc(N(C)Cc2cnc[nH]2)c1 [ESC1002033]", "Cl (clearance)": "6.2 mL/min/g liver"}

---

Listed below: EC50 values for each entry.
Molecular target: 17β-HSD10 (Homo sapiens)
Construct: Recombinant 17β-HSD10 was expressed and purified as previously described in Aitken et al; made in house
Test: (−)-CHANA fluorescence assay of cellular 17β-HSD10 activity
Format: cell-based
Details: Table 5, HEK293 17β-HSD10 cells, CHANA assay; read-out: cellular 17β-HSD10 activity mean pEC50 (converted)
assay.metric: EC50 (nM)

{"compound": "COc1cccc(-c2ccccc2C2CCCN2C(=O)c2[nH]ncc2Cl)c1 (stereo not shown)", "unit.abbrev": "nM", "data.value": 266}
{"compound": "Cc1ccc(C(=O)N(CC(C)C)c2cccc(N(C)Cc3c[nH]cn3)c2)c(F)c1", "unit.abbrev": "nM", "data.value": 367}
{"compound": "Cc1nc[nH]c1CN(C)c1cccc(N(CC(C)C)C(=O)c2ccccc2F)c1", "unit.abbrev": "nM", "data.value": 1360}
{"compound": "CC(C)CN(C(=O)c1c(F)cccc1F)c1cccc(N(C)Cc2c[nH]cn2)c1", "unit.abbrev": "nM", "data.value": 141}

---

Listing of entries alongside the reported IC50.
Molecular target: 17β-HSD10 (Homo sapiens, UniProt Q99714)
Construct: Recombinant 17β-HSD10 was expressed and purified as previously described in Aitken et al; made in house
Sequence (Q99714 1-261): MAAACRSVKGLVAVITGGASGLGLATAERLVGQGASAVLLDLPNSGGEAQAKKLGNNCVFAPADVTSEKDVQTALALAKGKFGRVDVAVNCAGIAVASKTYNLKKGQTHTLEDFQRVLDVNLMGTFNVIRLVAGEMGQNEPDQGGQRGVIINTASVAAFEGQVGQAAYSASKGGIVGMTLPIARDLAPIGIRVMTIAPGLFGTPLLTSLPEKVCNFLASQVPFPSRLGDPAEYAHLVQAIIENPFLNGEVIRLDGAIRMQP
Assay: 17β-HSD10 enzyme inhibition dose-response assay (acetoacetyl-CoA/NADH, absorbance 340 nm)
Assay type: biochemical
Conditions: Table 5; read-out: mean 17β-HSD10 pIC50 (converted)

{"compound": "Cc1nc[nH]c1CN(C)c1cccc(N(CC(C)C)C(=O)c2ccccc2F)c1 [ESC1002204]", "IC50 (nM)": 398}
{"compound": "CC(C)CN(C(=O)c1ccccc1F)c1cccc(N(C)Cc2cnc[nH]2)c1 [ESC1002033]", "IC50 (nM)": 200}
{"compound": "CC(C)CN(C(=O)c1c(F)cccc1F)c1cccc(N(C)Cc2c[nH]cn2)c1 [ESC1002456]", "IC50 (nM)": 138}
{"compound": "Cc1ccc(C(=O)N(CC(C)C)c2cccc(N(C)Cc3c[nH]cn3)c2)c(F)c1 [ESC1002575]", "IC50 (nM)": 269}
{"compound": "COc1cccc(-c2ccccc2C2CCCN2C(=O)c2[nH]ncc2Cl)c1 (stereo not drawn) [ESC1002757]", "IC50 (nM)": 105}
{"compound": "O=C(c1sccc1Cl)N1CCCC1c1ccccc1-c1cccc(O)c1 (stereo not drawn) [ESC1002755]", "IC50 (nM)": 18.6}

---

Assay: Mouse plasma protein binding
Assay type: in vitro ADME
Conditions: read-out: mouse PPB (% free)

{"molecule": "O=C(c1sccc1Cl)N1CCC[C@H]1c1ccccc1-c1cc(O)ccc1F [ESC1002842]", "fraction unbound": 0.034}
{"molecule": "Cc1ccc(C(=O)N(CC(C)C)c2cccc(N(C)Cc3c[nH]cn3)c2)c(F)c1 [ESC1002575]", "fraction unbound": 0.076}
{"molecule": "CC(C)CN(C(=O)c1c(F)cccc1F)c1cccc(N(C)Cc2c[nH]cn2)c1 [ESC1002456]", "fraction unbound": 0.089}

---

// reported IC50 per item
Molecular target: 17β-HSD10 (Homo sapiens)
Construct: Recombinant 17β-HSD10 was expressed and purified as previously described in Aitken et al; made in house
Assay: 17β-HSD10 enzyme inhibition dose-response assay (acetoacetyl-CoA/NADH, absorbance 340 nm)
Format: biochemical
Conditions: Table 3, chemically modified singleton hit compound series; read-out: 17β-HSD10 pIC50 (converted)

{"molecule": "COc1cccc(-c2ccccc2[C@@H]2CCCN2C(=O)c2[nH]ncc2Cl)c1", "system.name": "17β-HSD10 (Homo sapiens)", "IC50": "457 nM"}
{"molecule": "O=C(c1sccc1Cl)N1CCC[C@H]1c1ccccc1-c1cc(O)ccc1F", "system.name": "17β-HSD10 (Homo sapiens)", "IC50": "40.7 nM"}
{"molecule": "O=C(c1sccc1Cl)N1CCCC1c1ccccc1-c1cccc(O)c1 (stereo not drawn)", "system.name": "17β-HSD10 (Homo sapiens)", "IC50": "20 nM"}
{"molecule": "COc1cccc(-c2ccccc2C2CCCN2C(=O)c2sccc2C)c1 (stereo not drawn)", "system.name": "17β-HSD10 (Homo sapiens)", "IC50": "186 nM"}
{"molecule": "Cc1ccsc1C(=O)N1CCC[C@H]1c1ccccc1-c1cnn(C)c1", "system.name": "17β-HSD10 (Homo sapiens)", "IC50": "933 nM"}
{"molecule": "COc1ccc(-c2ccccc2[C@@H]2CCCN2C(=O)c2sccc2C)cc1", "system.name": "17β-HSD10 (Homo sapiens)", "IC50": "331 nM"}
{"molecule": "O=C(c1sccc1Cl)N1CCCC1c1ccccc1-c1cc(O)cc(F)c1 (stereo not drawn) [ESC1002801]", "system.name": "17β-HSD10 (Homo sapiens)", "IC50": "51.3 nM"}
{"molecule": "COc1cccc(-c2ccccc2C2CCCN2C(=O)c2[nH]ncc2Cl)c1 (stereo not drawn)", "system.name": "17β-HSD10 (Homo sapiens)", "IC50": "115 nM"}
{"molecule": "O=C(c1sccc1Cl)N1CCCC1c1ccccc1-c1cc(O)cc(F)c1 (racemic) [ESC1002776]", "system.name": "17β-HSD10 (Homo sapiens)", "IC50": "40.7 nM"}

---

Molecular target: 17β-HSD10 (Homo sapiens)
Construct: Recombinant 17β-HSD10 was expressed and purified as previously described in Aitken et al; made in house
Sequence (Q99714 1-261): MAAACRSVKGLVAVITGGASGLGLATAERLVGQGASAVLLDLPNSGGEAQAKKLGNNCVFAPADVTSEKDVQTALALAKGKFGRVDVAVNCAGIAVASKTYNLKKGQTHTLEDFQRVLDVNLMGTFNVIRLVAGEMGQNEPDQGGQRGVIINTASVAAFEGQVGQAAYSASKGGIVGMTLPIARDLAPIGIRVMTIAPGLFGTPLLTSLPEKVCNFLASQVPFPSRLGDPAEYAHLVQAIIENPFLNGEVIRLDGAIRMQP
Assay: 17β-HSD10 enzyme inhibition dose-response assay (acetoacetyl-CoA/NADH, absorbance 340 nm)
Type: biochemical
Settings: Table 2, chemically modified cluster hit compounds; read-out: 17β-HSD10 pIC50 (converted)

{"molecule": "Cc1ccc(C(=O)N(CC(C)C)c2cccc(N(C)Cc3cnc[nH]3)c2)cc1 [ESC1002032]", "system.name": "17β-HSD10 (Homo sapiens)", "IC50": "251 nM"}
{"molecule": "CC(C)CN(C(=O)C1CCCCC1)c1cccc(N(C)Cc2cnc[nH]2)c1 [ESC1002166]", "system.name": "17β-HSD10 (Homo sapiens)", "IC50": "955 nM"}
{"molecule": "CC(C)CN(C(=O)c1ccccc1F)c1cccc(N(C)Cc2cnc[nH]2)c1 [ESC1002033]", "system.name": "17β-HSD10 (Homo sapiens)", "IC50": "200 nM"}
{"molecule": "COc1ccc(C(=O)N(CC(C)C)c2cccc(N(C)Cc3c[nH]cn3)c2)c(F)c1 [ESC1002576]", "system.name": "17β-HSD10 (Homo sapiens)", "IC50": "245 nM"}
{"molecule": "CC(C)CN(C(=O)c1ccc(Cl)cc1F)c1cccc(N(C)Cc2cnc[nH]2)c1 [ESC1002042]", "system.name": "17β-HSD10 (Homo sapiens)", "IC50": "316 nM"}
{"molecule": "CC(C)CN(C(=O)c1c(F)cccc1F)c1cccc(N(C)Cc2c[nH]cn2)c1 [ESC1002456]", "system.name": "17β-HSD10 (Homo sapiens)", "IC50": "138 nM"}
{"molecule": "CC(C)CN(C(=O)c1ccccc1F)c1cccc(N(C)Cc2ccn[nH]2)c1 [ESC1002205]", "system.name": "17β-HSD10 (Homo sapiens)", "IC50": "891 nM"}
{"molecule": "Cc1ccc(C(=O)N(CC(C)C)c2cccc(N(C)Cc3c[nH]cn3)c2)c(F)c1 [ESC1002575]", "system.name": "17β-HSD10 (Homo sapiens)", "IC50": "269 nM"}
{"molecule": "COc1ccc(C(=O)N(CC(C)C)c2cccc(N(C)Cc3cnc[nH]3)c2)cc1 [ESC1002182]", "system.name": "17β-HSD10 (Homo sapiens)", "IC50": "331 nM"}
{"molecule": "COc1ccc(-c2ccccc2C2CCCN2C(=O)c2sccc2C)cc1 (stereo not drawn) [ESC1002332]", "system.name": "17β-HSD10 (Homo sapiens)", "IC50": "166 nM"}
{"molecule": "Cc1nc[nH]c1CN(C)c1cccc(N(CC(C)C)C(=O)c2ccccc2F)c1 [ESC1002204]", "system.name": "17β-HSD10 (Homo sapiens)", "IC50": "398 nM"}
{"molecule": "CC(C)CN(C(=O)c1ccccc1F)c1cccc(NCc2c[nH]cn2)c1 [ESC1002631]", "system.name": "17β-HSD10 (Homo sapiens)", "IC50": "9330 nM"}

These data points were gathered from paper PMC12281485.
